Where do these numbers come from? They come from the supplement of paper PMC8967900.

- Test system: 380;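 also: ALL cell lines in 384-well plates, five doses spanning 10,000-fold, each plate scaled between vehicle and 100 µmol/L benzalkonium chloride controls, sDSS an adapted area-under-curve metric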
- ASSAY_DETAILS: selective drug sensitivity score (sDSS, relative to normal bone marrow) (sDSS (score)); higher = more potent and effective on the cell line relative to normal bone marrow cells
- EXPERIMENTAL_CONTEXT: 72 h

MOLECULE	SYSTEM	selective drug sensitivity score
C[C@H]1C=C2C(=O)O[C@H]3CC[C@@H](C1)[C@@]23O [Galiellalactone] (top concentration 25000 nM)	380	13
O=C(CCCCCCNC(=O)c1cnc(N(c2ccccc2)c2ccccc2)nc1)NO [Rocilinostat] (top concentration 10000 nM)	380	8.54
CC1(C)CCC(c2ccc(Cl)cc2)=C(CN2CCN(c3ccc(C(=O)NS(=O)(=O)c4ccc(N[C@H](CCN5CCOCC5)CSc5ccccc5)c(S(=O)(=O)C(F)(F)F)c4)cc3)CC2)C1 [Navitoclax] (top concentration 10000 nM)	380	26.1
CCN(CCO)CCCOc1ccc2c(Nc3cc(CC(=O)Nc4cccc(F)c4)[nH]n3)ncnc2c1 [AZD1152-HQPA] (top concentration 1000 nM)	380	20.8
NC1(C(=O)N[C@@H](CCO)c2ccc(Cl)cc2)CCN(c2ncnc3[nH]ccc23)CC1 [AZD-5363] (top concentration 10000 nM)	380	8.82
CC(=O)c1c(C)c2cnc(Nc3ccc(N4CCNCC4)cn3)nc2n(C2CCCC2)c1=O [Palbociclib] (top concentration 10000 nM)	380	-0.12
COCCNCc1ccc(-c2cc3nccc(Oc4ccc(NC(=O)C5(C(=O)Nc6ccc(F)cc6)CC5)cc4F)c3s2)nc1 [Sitravatinib] (top concentration 2500 nM)	380	2.18
O=C(/C=C/c1cccc(S(=O)(=O)Nc2ccccc2)c1)NO [Belinostat] (top concentration 10000 nM)	380	16.2
CN(C)C1CCN(C(=O)c2ccc(NC(=O)Nc3ccc(-c4nc(N5CCOCC5)nc(N5CCOCC5)n4)cc3)cc2)CC1 [Gedatolisib] (top concentration 1000 nM)	380	14.8
CCS(=O)(=O)N1CC(CC#N)(n2cc(-c3ncnc4[nH]ccc34)cn2)C1 [Baricitinib] (top concentration 2500 nM)	380	-1.94
O=C(Nc1cccc(NC(=O)c2cccc(O)c2O)c1)c1cccc(O)c1O [MST-312] (top concentration 10000 nM)	380	6
O=C(O)CC1CC(c2ccccc2)=NO1 (configuration not stated) [VGX-1027] (top concentration 10000 nM)	380	-0.04
C#Cc1cccc(Nc2ncnc3cc(OCCOC)c(OCCOC)cc23)c1 [Erlotinib] (top concentration 10000 nM)	380	2.36
COc1cccc2c1C(=O)c1c(O)c3c(c(O)c1C2=O)C[C@@](O)(C(=O)CO)C[C@@H]3O[C@H]1C[C@H](N)[C@@H](O)[C@H](C)O1 [Epirubicin] (top concentration 1000 nM)	380	13.8
NC(=O)N1CCC(CC(=O)N2CCC([C@H]3c4ncc(Br)cc4CCc4cc(Cl)cc(Br)c43)CC2)CC1 [Lonafarnib] (top concentration 100000 nM)	380	-1.06
C[C@@H]1CN(C(=O)c2ccc(NC(=O)c3cc(O[C@H](C)c4c(Cl)ccc(F)c4Cl)c(N)nn3)cc2)C[C@H](C)N1 [Ensartinib] (top concentration 1000 nM)	380	0.06
CO[C@H](C(=O)[C@@H](O)[C@@H](C)O)[C@@H]1Cc2cc3cc(O[C@H]4C[C@@H](O[C@H]5C[C@@H](O)[C@H](O)[C@@H](C)O5)[C@@H](O)[C@@H](C)O4)c(C)c(O)c3c(O)c2C(=O)[C@H]1O[C@H]1C[C@@H](O[C@H]2C[C@@H](O[C@H]3C[C@](C)(O)[C@H](O)[C@@H](C)O3)[C@H](O)[C@@H](C)O2)[C@H](O)[C@@H](C)O1 [Plicamycin] (top concentration 10000 nM)	380	7.14
CCCCOc1nc(N)c2c(n1)N(Cc1cccc(CN3CCCC3)c1)CC(=O)N2 [Vesatolimod] (top concentration 10000 nM)	380	-3.52
Cc1ncc(Cl)cc1NCc1ccc(C(=O)N[C@@H](CC2CCCC2)C(=O)NC2CC2)s1 (top concentration 5000 nM)	380	9.86
Nc1ccccc1NC(=O)c1ccc(CNC(=O)OCc2cccnc2)cc1 [Entinostat] (top concentration 10000 nM)	380	13.1
CCN(c1cc(-c2ccc(CN3CCOCC3)cc2)cc(C(=O)NCc2c(C)cc(C)[nH]c2=O)c1C)C1CCOCC1 [Tazemetostat] (top concentration 10000 nM)	380	-0.08
CCC1=C[C@@H]2CN(C1)Cc1c([nH]c3ccccc13)[C@@](C(=O)OC)(c1cc3c(cc1OC)N(C)[C@H]1[C@@](O)(C(=O)OC)[C@H](OC(C)=O)[C@]4(CC)C=CCN5CC[C@]31[C@@H]54)C2 [Vinorelbine] (top concentration 10000 nM)	380	23.3
